System: HCT116 cells (colorectal adenocarcinoma)
assay_details: Sulforhodamine B (SRB) antiproliferative assay, HCT116
Format: cell-based
recorded_conditions: Homo sapiens, HCT-116, HCT116, 48 h, mean ± SEM of four to six independent experiments
assay_metric: IC50 (µM)

1. C=C1CC[C@@H]2[C@](C)(COC(C)=O)[C@H](OC(C)=O)CC[C@@]2(C)[C@@H]1C[C@H](C1=CCOC1=O)n1cc(C(=O)OCC)nn1; 1.2
2. C=C1CC[C@@H]2[C@](C)(CO)[C@H](O)CC[C@@]2(C)[C@@H]1C/C=C1/C(=O)OC[C@H]1O [Compound 1, andrographolide]; 5.1
3. C=C1CC[C@@H]2[C@](C)(COC(C)=O)[C@H](OC(C)=O)CC[C@@]2(C)[C@@H]1C[C@H](C1=CCOC1=O)n1cc(CNC(=O)OC(C)(C)C)nn1; 1.6
4. C=C1CC[C@@H]2[C@](C)(COC(C)=O)[C@H](OC(C)=O)CC[C@@]2(C)[C@@H]1C[C@H](C1=CCOC1=O)n1cc(-c2ccsc2)nn1; 1.7
5. C=C1CC[C@@H]2[C@](C)(COC(C)=O)[C@H](OC(C)=O)CC[C@@]2(C)[C@@H]1C[C@@H](C1=CCOC1=O)n1cc(-c2ccc(C#N)cc2)nn1; 1.3
6. C=C1CC[C@@H]2[C@](C)(COC(C)=O)[C@H](OC(C)=O)CC[C@@]2(C)[C@@H]1C[C@@H](C1=CCOC1=O)n1cc(Cc2ccccc2)nn1; 1.9
7. C=C1CC[C@@H]2[C@](C)(COC(C)=O)[C@H](OC(C)=O)CC[C@@]2(C)[C@@H]1C[C@@H](N=[N+]=[N-])C1=CCOC1=O; 7.9
8. C=C1CC[C@@H]2[C@](C)(COC(C)=O)[C@H](OC(C)=O)CC[C@@]2(C)[C@@H]1C[C@@H](C1=CCOC1=O)n1cc(-c2ccc(OC)cc2)nn1; 1.7
9. C=C1CC[C@@H]2[C@](C)(COC(C)=O)[C@H](OC(C)=O)CC[C@@]2(C)[C@@H]1C[C@H](C1=CCOC1=O)n1cc(-c2ccc(OC(F)(F)F)cc2)nn1; 3.7
10. C=C1CC[C@@H]2[C@](C)(COC(C)=O)[C@H](OC(C)=O)CC[C@@]2(C)[C@@H]1C[C@H](C1=CCOC1=O)n1cc(-c2ccc(N)cc2)nn1; 4.8
11. C=C1CC[C@@H]2[C@](C)(COC(C)=O)[C@H](OC(C)=O)CC[C@@]2(C)[C@@H]1C[C@H](C1=CCOC1=O)n1cc(Cc2ccccc2)nn1; 2.1
12. C=C1CC[C@@H]2[C@](C)(COC(C)=O)[C@H](OC(C)=O)CC[C@@]2(C)[C@@H]1C[C@H](N=[N+]=[N-])C1=CCOC1=O; 1.5
13. C=C1CC[C@@H]2[C@](C)(COC(C)=O)[C@H](OC(C)=O)CC[C@@]2(C)[C@@H]1C[C@H](C1=CCOC1=O)n1cc(-c2ccc(-c3ccccc3)cc2)nn1; 1.4

Hello, the source for this data is paper PMC12114840, in case you need it.
